FYI, the data here is from ChEMBL document CHEMBL1152768.

# PROTOCOL TEXT: Cytotoxicity against human HEL cells assessed as reduction of growth after 3 days
# Type: cell-based
Give measured CC50 at 72 h for each item. Keep answers brief.
Form entry: value (µM) — number only.

Endpoint output: CC50 at 72 h of CCC1(Cc2ccccc2)OS(=O)(=O)C=C1OCc1ccc(C(C)(C)C)cc1 (racemic) . Value?
200

Recorded CC50 at 72 h for CC1(C(c2ccccc2)c2ccccc2)OS(=O)(=O)C=C1OCc1ccccc1 (racemic) , please?
200

Data request, read-out CC50 at 72 h, for CC(C)CC1(Cc2ccccc2)OS(=O)(=O)C=C1OCc1ccccc1 (racemic)
102

Value lookup for CC50 at 72 h; key = CCC1(Cc2ccccc2)OS(=O)(=O)C=C1OCCCc1ccccc1 (racemic)
133

Entry CC(C)C1(Cc2ccccc2)OS(=O)(=O)C=C1OCc1ccccc1 (racemic) : reported CC50 at 72 h = ?
200

---

# PROTOCOL TEXT: Cytotoxicity against human HEL cells assessed as reduction of growth after 3 days
# Format: cell-based
Record form. Attribute: CC50 at 72 h. Fill in for each entry.

Requested read-out: CC50 at 72 h. Entry: CCC1(Cc2ccccc2)OS(=O)(=O)C=C1OCc1ccc([N+](=O)[O-])cc1 (racemic)
< 200 µM

Recorded CC50 at 72 h for CCC1(Cc2ccccc2)OS(=O)(=O)C=C1OCCCCCCc1ccccc1 (racemic) , please?
< 200 µM

Which CC50 at 72 h is reported for this molecule? CCC1(Cc2ccccc2)OS(=O)(=O)C=C1OCc1ccc(F)cc1 (racemic)
> 50 µM

Value lookup for CC50 at 72 h; key = CCC1(Cc2ccccc2)OS(=O)(=O)C=C1OCC(=O)OC (racemic)
> 200 µM

Given the molecule CCC1(Cc2ccccc2)OS(=O)(=O)C=C1OC(=O)c1ccccc1 (racemic) , what is its reported CC50 at 72 h?
> 200 µM

Please give the measured CC50 at 72 h for this molecule: C=CCOC1=CS(=O)(=O)OC1(CC)Cc1ccccc1 (racemic)
> 200 µM
